test system: PC-3 [JPC-3]; test: relative viability (nuclei count vs DMSO), 5 days (fraction); higher = more cells survive; conditions: first compound 8 µM
quantity-name: relative viability

- C=C1C(=O)O[C@@H](CCCCCCCC)[C@@H]1C(=O)O [C-75] + CC(=O)Nc1cccc(-n2c(=O)n(C3CC3)c(=O)c3c(Nc4ccc(I)cc4F)n(C)c(=O)c(C)c32)c1 [Trametinib] (partner 0.02 µM): 0.915
- C=C1C(=O)O[C@@H](CCCCCCCC)[C@@H]1C(=O)O [C-75] + C[C@@H](Oc1cc(-c2cnn(C3CCNCC3)c2)cnc1N)c1c(Cl)ccc(F)c1Cl [Crizotinib] (partner 1 µM): 1.14
- C=C1C(=O)O[C@@H](CCCCCCCC)[C@@H]1C(=O)O [C-75] + CS(=O)(=O)N1CCN(Cc2cc3nc(-c4cccc5[nH]ncc45)nc(N4CCOCC4)c3s2)CC1 [Pictilisib] (partner 1 µM): 0.876
- C=C1C(=O)O[C@@H](CCCCCCCC)[C@@H]1C(=O)O [C-75] + COc1cccc2cc(-c3nc([C@H]4CC[C@H](C(=O)O)CC4)n4ncnc(N)c34)[nH]c12 [OSI-027] (partner 0.5 µM): 0.749
- C=C1C(=O)O[C@@H](CCCCCCCC)[C@@H]1C(=O)O [C-75] + O=C(c1cc(Cc2n[nH]c(=O)c3ccccc23)ccc1F)N1CCN(C(=O)C2CC2)CC1 [Olaparib] (partner 8 µM): 1.2
- C=C1C(=O)O[C@@H](CCCCCCCC)[C@@H]1C(=O)O [C-75] + C[C@]1(O)C[C@@H](c2nc(-c3ccc4ccc(-c5ccccc5)nc4c3)c3c(N)nccn32)C1 [Linsitinib] (partner 1 µM): 1.09
- C=C1C(=O)O[C@@H](CCCCCCCC)[C@@H]1C(=O)O [C-75] + Nc1ncn([C@H]2C[C@H](O)[C@@H](CO)O2)c(=O)n1 [Decitabine] (partner 2 µM): 0.91

* * *

Reported relative viability values for a set of compounds
tested on: NCI-H2009; assay: relative viability (nuclei count vs DMSO), 5 days (fraction); higher = more cells survive; settings: first compound 0.3162 µM
quantity-name: relative viability

- NC(=O)Nc1cc(-c2cccc(F)c2)sc1C(=O)N[C@H]1CCCNC1 [AZD7762] + C[C@@H](Oc1cc(-c2cnn(C3CCNCC3)c2)cnc1N)c1c(Cl)ccc(F)c1Cl [Crizotinib] (partner 1 µM): 0.954
- NC(=O)Nc1cc(-c2cccc(F)c2)sc1C(=O)N[C@H]1CCCNC1 [AZD7762] + CC(C)C[C@H](NC(=O)[C@H](Cc1ccccc1)NC(=O)c1cnccn1)B(O)O [Bortezomib] (partner 0.002 µM): 0.839
- NC(=O)Nc1cc(-c2cccc(F)c2)sc1C(=O)N[C@H]1CCCNC1 [AZD7762] + O=C(c1cc(Cc2n[nH]c(=O)c3ccccc23)ccc1F)N1CCN(C(=O)C2CC2)CC1 [Olaparib] (partner 8 µM): 0.521
- NC(=O)Nc1cc(-c2cccc(F)c2)sc1C(=O)N[C@H]1CCCNC1 [AZD7762] + CC(=O)Nc1cccc(-n2c(=O)n(C3CC3)c(=O)c3c(Nc4ccc(I)cc4F)n(C)c(=O)c(C)c32)c1 [Trametinib] (partner 0.02 µM): 0.295

# credit: the supplement of paper PMC10307832
